test summary: A CellTox Green Cytotoxicity Assay to monitor cytotoxicity in HepG2 cells - 40 hour (AID 1224879); also: nearly all actives have a fitted effect of over 40% in size
details: CellTox Green fluorescence; series mostly up to 76.8 µM
Results filed as inconclusive are left out. Calls of active or inactive are those of the source. Calls follow the shape of the dose curve; as a rule, active = well fitted activation curve with a large enough effect in the repeat runs; inconclusive = weak or mixed curves; inactive = flat fitted curve, though single readings scatter.
Outcome codes: true for active, false for inactive

molecule | class assignment
CCOC(=O)[C@H](CCc1ccccc1)N[C@@H](C)C(=O)N1Cc2ccccc2C[C@H]1C(=O)O | false
NS(=O)(=O)c1cc2c(cc1Cl)NC=NS2(=O)=O | false
O=C(Oc1ccccc1)c1ccc(O)cc1 | false
Clc1cc(Cl)c(Cl)cc1Cl | false
Nc1nc2ncc(CNc3ccc(C(=O)N[C@@H](CCC(=O)O)C(=O)O)cc3)nc2c(=O)[nH]1 | false
CCCCCCOC(C)=O | false
CCCCC(CC)COC(=O)CCCCCCCC(=O)OCC(CC)CCCC (stereo unspecified) | true
CC(C)(N=C=O)c1cccc(C(C)(C)N=C=O)c1 | false
CC1CC(OC(=O)c2ccccc2O)CC(C)(C)C1 (stereo unspecified) | false
CCC(=O)O | false
O=Nc1ccc(O)cc1 | false
Cc1ccc(N)c(S(=O)(=O)O)c1 | false
O=C1CCCCC1 | false
CN(C)c1cccc(O)c1 | false
CC1=C(/C=C/C(C)=C/C=C/C(C)=C/CO)C(C)(C)CCC1 | false
O=S(=O)(Oc1ccc(Cl)cc1Cl)c1ccccc1 | false
COCC(=O)O | false
Nc1cc(-c2ccncc2)c[nH]c1=O | false
CN(CCOc1ccc(CC2SC(=O)NC2=O)cc1)c1ccccn1 (stereo unspecified) | false
CC#C[C@]1(O)CC[C@H]2[C@@H]3CCC4=CC(=O)CCC4=C3[C@@H](c3ccc(N(C)C)cc3)C[C@@]21C | false
C=C(C)C(=O)OCCCCCCCCCCCC | false
O=C(c1cc(O)c(O)c(O)c1)c1ccc(O)c(O)c1O | false
CC(=O)Nc1ccc(C(=O)O)cc1 | false
O=c1c(-c2ccc(O)cc2)coc2cc(O)ccc12 | false
O=C(O)c1ccc([N+](=O)[O-])cc1 | false
O=[N+]([O-])c1cc(N(CCO)CCO)ccc1NCCO | false
C[C@@H]1O[C@@H](OC[C@H]2O[C@@H](Oc3c(-c4ccc(O)c(O)c4)oc4cc(O)cc(O)c4c3=O)[C@H](O)[C@@H](O)[C@@H]2O)[C@H](O)[C@H](O)[C@H]1O | false
C=C(C)C(=O)OCCCCCC | false
O=[N+]([O-])c1cccc(Cl)c1 | false
C[C@@H](O)[C@H]1C(=O)N2C(C(=O)O)=C(S[C@@H]3CN[C@H](C(=O)N(C)C)C3)[C@H](C)[C@H]12 | false
CC1=CC[C@H]2C[C@@H]1C2(C)C | false
CCCCC/C=C\C/C=C\CCCCCCCC(=O)OC | false
Cc1cc(O)cc(C)c1Cl | false
Oc1ccc(OCc2ccccc2)cc1 | false
CCC(C)C=O (stereo unspecified) | false
Oc1ccc2ccccc2c1 | false
OCCOCCOCCOCCO | false
COC(=O)c1ccccc1O | false
CCCCC(CC)COC(C)=O (stereo unspecified) | false
Cc1cc(Cc2ccc(N)c(C)c2)ccc1N | false
CCCCOCCOCCOC(=O)CCCCC(=O)OCCOCCOCCCC | false
C=CC(=O)OCCCCCCCC(C)C | false
CCCCCCCCCC(=O)O | false
CC1COc2ccccc2N1C(=O)C(Cl)Cl (stereo unspecified) | false
C/C=C(C)/C=C/C=C(C)C | false
Cc1ccc(C(=O)O)o1 | false
CCCCCCCCC | false
CCCCCC/C=C/CCCCCCCC(=O)O | false
CCCCCCCCCCC=CC1CC(=O)OC1=O (stereo unspecified) | false
CC(C)(C)C1CCC(O)CC1 (stereo unspecified) | false
CC(C)Cc1ccccc1 | false
OC1CCCC1 | false
C=C1CC[C@H](O)CC1=C/C=C1\CCC[C@]2(C)[C@@H]([C@H](C)/C=C/[C@H](C)C(C)C)CC[C@@H]12 | false
c1ccc2[nH]cnc2c1 | false
O=S(=O)(O)CCS | false
CC(C)(CO)COC(=O)C(C)(C)CO | false
